Task for the reader: assign each of the following compounds its reported pIC50.
ASSAY_SYSTEM: orexin-1 (Homo sapiens (Human), UniProt O43613)
Sequence (O43613 whole entry): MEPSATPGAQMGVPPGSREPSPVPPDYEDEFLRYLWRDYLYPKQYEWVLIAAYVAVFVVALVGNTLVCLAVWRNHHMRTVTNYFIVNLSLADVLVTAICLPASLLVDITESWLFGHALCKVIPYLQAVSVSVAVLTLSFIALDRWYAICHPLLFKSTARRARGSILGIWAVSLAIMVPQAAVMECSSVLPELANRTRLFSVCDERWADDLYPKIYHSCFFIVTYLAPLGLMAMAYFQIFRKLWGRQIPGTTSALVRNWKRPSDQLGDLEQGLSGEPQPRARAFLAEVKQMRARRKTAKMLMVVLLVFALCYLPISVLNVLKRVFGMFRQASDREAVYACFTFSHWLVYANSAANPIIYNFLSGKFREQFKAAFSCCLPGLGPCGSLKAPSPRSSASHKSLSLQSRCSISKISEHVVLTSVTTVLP
ASSAY_INFO: Intracellular calcium measurement (FLIPR), CHO cells expressing human orexin-1 receptor, 3 nM orexin-A
Format: cell-based
EXPERIMENTAL_CONTEXT: CHO cells expressing human orexin-1 receptor, FLIPR, 3 nM orexin-A; geometric mean if determined several times; read-out: IC50 OX1
Numbers only, as −log10 of the molar value.

COMPOUND | MEASUREMENT_LABEL | NUMERIC_RESULT
COc1c(F)cccc1-c1nnc([C@@H]2CCCN2C(=O)c2ccc(C)cc2-n2nccn2)[nH]1 [compound 477] | pIC50 | 7.26
COc1cc(-c2noc([C@@H]3CCCN3C(=O)c3cc(C)ccc3-n3nccn3)n2)cc(C)n1 [compound 66] | pIC50 | 6.52
O=C(c1ccccc1-n1nccn1)N1CCC[C@H]1c1nc(-c2ccccc2OC(F)F)no1 [compound 185] | pIC50 | 6.28
CC(=O)n1cc(-c2noc([C@@H]3CCCN3C(=O)c3cc(C)ccc3-n3nccn3)n2)c2ccccc21 [Example 85] | pIC50 | 7.55
Cc1c(Cl)cccc1-c1noc([C@@H]2CCCN2C(=O)c2cc(F)ccc2-n2nccn2)n1 [compound 104] | pIC50 | 5.99

Provide pIC50 values for the following items, in order.
1. Cc1ccc(-n2nccn2)c(C(=O)N2CCC[C@H]2c2cc(-c3ccccc3)no2)c1 [Example 420]
2. COc1ccccc1-c1noc([C@@H]2CCCN2C(=O)c2cc(F)ccc2-n2nccn2)n1 [compound 233]
3. COc1ccc(C)c(-c2nc([C@@H]3CCCN3C(=O)c3cc(C)ccc3-n3nccn3)no2)c1 [compound 410]

Completion:
5.97
5.85
6.85

---

Could you please report measured pIC50 for the items listed next?
ASSAY_SYSTEM: orexin-1 (Homo sapiens (Human), UniProt O43613)
ASSAY_INFO: Intracellular calcium measurement (FLIPR), CHO cells expressing human orexin-1 receptor, 3 nM orexin-A
Type: cell-based
EXPERIMENTAL_CONTEXT: CHO cells expressing human orexin-1 receptor, FLIPR, 3 nM orexin-A; geometric mean if determined several times; read-out: IC50 OX1
Give bare numbers, as −log10 of the molar value.

Illustrative cases are given below, each with its answer.
MOLECULE | pIC50
Cc1c(Cl)cccc1-c1noc([C@@H]2CCCN2C(=O)c2ccc(F)cc2-n2cccn2)n1 [compound 111] | 5.94
Cc1ccc(-n2nccn2)c(C(=O)N2CCC[C@H]2c2cc(-c3ccccc3)n[nH]2)c1 [Example 530] | 6.41
CCc1ccccc1-c1nnc([C@@H]2CCCN2C(=O)c2cc(C)ccc2-n2nccn2)o1 [Example 452] | 6.60

For every item in the list below, what is its measured pIC50?
1. CCOc1ncccc1-c1nnc([C@@H]2CCCN2C(=O)c2cc(C)ccc2-n2nccn2)[nH]1 [compound 496]
2. CCOc1ccccc1-c1nc([C@@H]2CCCN2C(=O)c2cc(C)ccc2-n2nccn2)no1 [compound 306]
3. Cc1ccc(-n2nccn2)c(C(=O)N2CCC[C@H]2c2nc(-c3ccc(F)c(F)c3)no2)c1 [compound 20]
4. CCOc1c(F)cccc1-c1nc([C@@H]2CCCN2C(=O)c2cc(OC)c(Cl)cc2-n2nccn2)no1 [compound 369]

Completion:
[7.24, 7.44, 6.22, 7.82]
